Reference source: paper PMC5519978

Target: T1, BRG1 AT-BRD (AT-hook and bromodomain of human BRG1, residues 1434-1569), wild type (human, UniProt P51532 1434-1569)
T1 chain: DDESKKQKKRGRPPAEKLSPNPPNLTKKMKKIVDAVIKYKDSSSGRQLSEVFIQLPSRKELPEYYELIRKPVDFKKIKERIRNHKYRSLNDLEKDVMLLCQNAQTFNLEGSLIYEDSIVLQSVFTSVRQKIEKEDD
Assay: NMR
No end group written: not given here.
OBSERVATION_TYPE: pKd
By convention, pKd is the negative base-10 log of a molar concentration.

Q) Which value of pKd has been reported for KSTGGK(Ac)APRKQ [H3(9-19)K14ac histone peptide] in the records?
A) 3.03
